Tested on: T. mentagrophytes
Assay Method Text: Effect against topical T. mentagrophytes infections in guinea pigs (Table VI)
Assay type: in vivo
Setup Conditions: concentration 4%
Listing: Average No. of Days to become negative, Cultures of selected molecules
Your answer should be a plain number; it is taken to be in days.

NCc1[nH]c2ccc(Cl)cc2c1-c1c(F)cccc1F [B]    5.0
NCc1[nH]c2ccc(Cl)cc2c1-c1ccccc1 [C]    5.6
NCc1[nH]c2ccc(Cl)cc2c1-c1ccc(Cl)cc1Cl [E]    6.6
NCc1[nH]c2cc(Br)c(Cl)cc2c1-c1ccccc1 [D]    6.2

Continue with the next molecule.
(Q) Param readout= Average No. of Days to become negative, Cultures; system= T. mentagrophytes; entry= NCc1[nH]c2ccc(Cl)cc2c1-c1ccccc1F [A] ; returns value.
(A) 6.0

---

Test system: Trychomonas vaginalis
Assay Method Text: In vitro Anti-Trichomonal activity (Table VII)
Assay type: cell-based
Setup Conditions: 90% suppression, read-out: Minimal Level to Produce 90% Suppression
Measurement Label: IC90 (µg/mL)
Your answer should be a plain number; it is taken to be in µg/mL.

NCc1[nH]c2ccc(Cl)cc2c1-c1ccccc1F    40

(Q) Give its IC90 value. Item: "NCc1[nH]c2ccc(Cl)cc2c1-c1ccccc1"
(A) 38

(Q) Give its IC90 value. Item: "NCc1[nH]c2ccc(Cl)cc2c1-c1c(F)cccc1F"
(A) 75

(Q) Give its IC90 value. Item: "NCc1[nH]c2cc(Br)c(Cl)cc2c1-c1ccccc1"
(A) 38

(Q) Give its IC90 value. Item: "NCc1[nH]c2ccc(Cl)cc2c1-c1ccc(Cl)cc1Cl"
(A) 28

---

Tested on: Trichophyton mentagrophytes
Assay Method Text: In vitro antifungal activity, dilutions in Sabouraud's Dextrose Broth (Table IV)
Type: cell-based
Setup Conditions: 96 h, strain H377, after 96 hours
Protocol: All the tests were carried out and (when necessary) scored under standard conditions. "MIC" means "minimum inhibitory concentration." In vitro Antifungal Activity of 2-amioalkyl-3-phenylindoles of the formula I against Dermetophytes and Aspergillus. Dilutions in Sabouraud's Dextrose Broth.
Listing: MIC of selected compounds
Please format your answer as a value with the unit trailing.

Sample records with MIC:
NCc1[nH]c2ccc(Cl)cc2c1-c1c(F)cccc1F    17.5 µg/mL
NCc1[nH]c2ccc(Cl)cc2c1-c1ccc(Cl)cc1Cl    7.5 µg/mL

(Q) Give its MIC value. Item: "NCc1[nH]c2ccc(Cl)cc2c1-c1ccccc1"
(A) 17.5 µg/mL

(Q) Give its MIC value. Item: "NCc1[nH]c2ccc(Cl)cc2c1-c1ccccc1F"
(A) 7.5 µg/mL

(Q) Give its MIC value. Item: "NCc1[nH]c2cc(Br)c(Cl)cc2c1-c1ccccc1"
(A) 7.5 µg/mL

---

Tested on: Salmonella
Assay Method Text: In vitro antibacterial activity, dilution in Mueller Hinton Agar (Table I)
Type: cell-based
Setup Conditions: pH 7.4, C2 Napc, Mueller Hinton Agar pH 7.4
Measurement Label: MIC (µg/mL)
Your answer should be a plain number; it is taken to be in µg/mL.

Sample records with MIC:
NCc1[nH]c2ccc(Cl)cc2c1-c1ccccc1    3
NCc1[nH]c2ccc(Cl)cc2c1-c1c(F)cccc1F    7.5
NCc1[nH]c2cc(Br)c(Cl)cc2c1-c1ccccc1    3
NCc1[nH]c2ccc(Cl)cc2c1-c1ccccc1F    3

(Q) Give its MIC value. Item: "NCc1[nH]c2ccc(Cl)cc2c1-c1ccc(Cl)cc1Cl"
(A) 3
